assay: Solubility (24 hrs equilibration at RT, HPLC-UV); assay type: physicochemical; settings: pH 7.4, aqueous buffer, thermodynamic from solid; 0.1 M Phosphate Buffer, target concentration 5 mg/ml, 24 hrs at RT; read-out: Solubility pH 7.4
measuredProperty: solubility at 24 h (mg/mL)

{"molecule": "COc1cccc(C(=O)NN(C(=O)c2ccc3c(c2)N=COB3O)C(C)(C)C)c1C [compound 13]", "experimentalValue": 0.221}
{"molecule": "Cc1cc(C)cc(C(=O)N(NC(=O)c2ccc(CN(C)C)c(B(O)O)c2)C(C)(C)C)c1 [compound 11]", "experimentalValue": 4.7}
{"molecule": "COc1cccc(C(=O)NN(C(=O)c2ccc3c(c2)B(O)NC3)C(C)(C)C)c1C [compound 9]", "experimentalValue": 4.92}
{"molecule": "Cc1cc(C)cc(C(=O)N(NC(=O)c2ccc(B(O)O)c(NS(=O)(=O)c3ccccc3)c2)C(C)(C)C)c1 [compound 7]", "experimentalValue": 0.0041}
{"molecule": "COc1cccc(C(=O)NN(C(=O)c2ccc3c(c2)N=C(C)OB3O)C(C)(C)C)c1C [compound 12]", "experimentalValue": 3.76}
{"molecule": "CC1=Nc2cc(C(=O)NN(C(=O)c3cc(C)cc(C)c3)C(C)(C)C)ccc2B(O)O1 [compound 2]", "experimentalValue": 4.31}
{"molecule": "COc1cccc(C(=O)NN(C(=O)c2ccc3c(c2)NC(=O)N(c2ccccc2)B3O)C(C)(C)C)c1C [compound 15]", "experimentalValue": 0.54}
{"molecule": "Cc1cc(C)cc(C(=O)N(NC(=O)c2ccc3c(c2)B(O)ON=C3)C(C)(C)C)c1 [compound 20]", "experimentalValue": 2.68}

[a] Cc1cc(C)cc(C(=O)NNC(=O)c2ccc3c(c2)N=C(C(F)(F)F)OB3O)c1 [compound 6]
[b] Cc1cc(C)cc(C(=O)N(NC(=O)c2ccc(CC#N)c(B(O)O)c2)C(C)(C)C)c1 [compound 19]
Query string: Lower value of solubility at 24 h belongs to which: a or b ? When you have decided, please share the label of that item.
Result string: a
(a: 0.0017 mg/mL, b: 0.0168 mg/mL)

* * *

assay: Solubility (24 hrs equilibration at RT, HPLC-UV); type: physicochemical; details: biorelevant, thermodynamic from solid; Simulated Intestinal Fluid pH 7.5 (USP), target concentration 5 mg/ml, 24 hrs at RT; read-out: Solubility SIF
measuredProperty: solubility at 24 h (µg/mL)

Consider the reported solubility at 24 h for these compounds:
{"compoundStructure": "COc1cccc(C(=O)NN(C(=O)c2ccc3c(c2)B(O)NC3)C(C)(C)C)c1C", "unitTag": "µg/mL", "solubility at 24 h": 4510}
{"compoundStructure": "Cc1cc(C)cc(C(=O)N(NC(=O)c2ccc3c(c2)B(O)NCC3)C(C)(C)C)c1", "unitTag": "µg/mL", "solubility at 24 h": 492}
{"compoundStructure": "COc1cccc(C(=O)NN(C(=O)c2ccc3c(c2)N=COB3O)C(C)(C)C)c1C", "unitTag": "µg/mL", "solubility at 24 h": 334}
{"compoundStructure": "COc1cccc(C(=O)NN(C(=O)c2ccc3c(c2)N=C(C)OB3O)C(C)(C)C)c1C", "unitTag": "µg/mL", "solubility at 24 h": 3800}
{"compoundStructure": "Cc1cc(C)cc(C(=O)N(NC(=O)c2ccc3c(c2)B(O)ON=C3)C(C)(C)C)c1", "unitTag": "µg/mL", "solubility at 24 h": 3330}

[1] CC1=Nc2cc(C(=O)NN(C(=O)c3cc(C)cc(C)c3)C(C)(C)C)ccc2B(O)O1
[2] Cc1cc(C)cc(C(=O)N(NC(=O)c2ccc3c(c2)NC(=S)N(c2ccccc2)B3O)C(C)(C)C)c1
[3] Cc1cc(C)cc(C(=O)N(NC(=O)c2ccc(B(O)O)c(NS(=O)(=O)c3ccccc3)c2)C(C)(C)C)c1
Query string: # rank by solubility at 24 h, ascending (min first) Write the labels in rank order as requested.
Result string: 3, 2, 1
